Target: Chymase (Homo sapiens)
Sequence (P23946 whole entry): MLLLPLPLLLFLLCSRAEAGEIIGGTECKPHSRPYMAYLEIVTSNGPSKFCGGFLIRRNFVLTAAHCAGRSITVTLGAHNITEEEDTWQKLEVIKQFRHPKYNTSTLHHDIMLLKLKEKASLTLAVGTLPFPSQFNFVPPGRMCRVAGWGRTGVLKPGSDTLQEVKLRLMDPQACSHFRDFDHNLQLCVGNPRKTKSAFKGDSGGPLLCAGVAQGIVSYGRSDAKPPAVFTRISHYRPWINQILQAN
Test: Compound was evaluated for inhibitory activity against human heart chymase (HHC)
Where a SMILES comes first, the peptide text is derived from it. The star is where a group is joined. Cbz = O=C(OCc1ccccc1)*
pKi overview
Just so you know, pKi here is -log10 of the concentration in molar units; reply with that number alone.

Known pKi results, listed for orientation:
CC(C)(C)OC(=O)NC(CCC(=O)O)C(=O)N1CCC[C@H]1C(=O)NC(Cc1ccccc1)C(=O)C(F)(F)C(=O)Nc1cccc(C(N)=O)c1 (some centres undefined) = 7.68
CC(C)(C)OC(=O)NC(CCC(=O)O)C(=O)N1CCC[C@H]1C(=O)NC(Cc1ccccc1)C(=O)C(F)(F)C(=O)Nc1cccc(CC(=O)O)c1 (some centres undefined) = 8.17
CC(C)C(NC(=O)OC(C)(C)C)C(=O)N1CCC[C@H]1C(=O)NC(Cc1ccccc1)C(=O)C(F)(F)C(=O)Nc1cccc(C(=O)O)c1 (some centres undefined) = 8.25

Consider the record given below.
Qu. Notebook: pull reported pKi for Chymase (Homo sapiens), entry CC[C@H](C)[C@H](NC(=O)OCc1ccccc1)C(=O)N[C@@H](CCC(=O)O)C(=O)N1CCC[C@H]1C(=O)N[C@@H](Cc1ccccc1)C(=O)OC (Cbz-IEPF-OMe)
Ans. 8.52

----------
Assay: Selectivity ratio of Bovine chymotrypsin (BCT-Ki) to human heart chymase (HHC-Ki)
measured-endpoint: Ratio

Known Ratio results, listed for orientation:
CC(C)(C)OC(=O)NC(CC(=O)O)C(=O)N1CCC[C@H]1C(=O)NC(Cc1ccccc1)C(=O)C(F)(F)C(=O)Nc1cccc(C(=O)O)c1 (stereo partly specified) = 2730
CC(C)(C)OC(=O)NC(CCC(=O)O)C(=O)N1CCC[C@H]1C(=O)NC(Cc1ccccc1)C(=O)C(F)(F)C(=O)Nc1cccc(S(N)(=O)=O)c1 (stereo partly specified) = 38
CC(C)(C)OC(=O)NC(CCC(=O)O)C(=O)N1CCC[C@H]1C(=O)NC(Cc1ccccc1)C(=O)C(F)(F)C(=O)Nc1cccc(C(N)=O)c1 (stereo partly specified) = 58
CC(C)(C)OC(=O)NC(CCC(=O)O)C(=O)N1CCC[C@H]1C(=O)NC(Cc1ccccc1)C(=O)C(F)(F)C(=O)Nc1cccc(CC(=O)O)c1 (stereo partly specified) = 590
CC(C)(C)OC(=O)NC(CCC(=O)O)C(=O)N1CCC[C@H]1C(=O)NC(Cc1ccccc1)C(=O)C(F)(F)C(=O)Nc1cc(C(=O)O)cs1 (stereo partly specified) = > 16700

Qu. // returns reported Ratio for input CC(C)(C)OC(=O)NC(CCC(=O)O)C(=O)N1CCC[C@H]1C(=O)NC(Cc1ccccc1)C(=O)C(F)(F)C(=O)Nc1cccc(C(=O)O)c1 (stereo partly specified)
Ans. 332
